system: Yap1 mRNA; experiment: Antisense inhibition of human Yap1 in A-431 cells by cEt gapmers, single dose (Example 3, RTS36584); assay type: cell-based; details: Table 9; A-431 cells, 5,000 cells per well, free uptake, 2,000 nM, approximately 48 hours; RTS36584; normalized to RIBOGREEN; Yap1 mRNA relative to untreated control cells
Strand notation (5' to 3'): a small letter for the sugar, then the base; units joined by * are phosphorothioate-linked, units joined directly phosphodiester-linked; [ ] holds rarer units or linkages, { } end groups; capitals alone tell only the bases. k = constrained ethyl (cEt); [5mC] = 5-methylcytosine; d = 2'-deoxy (DNA)
Record MET whenever YAP1 (% UTC) is at 5 % UTC or higher; record NOT MET when lower.

Some solved cases for reference:
substance="958526 (kA*kG*kT*dA*dA*dG*dA*dA*d[5mC]*dA*dA*dT*d[5mC]*kT*kT*kG; antisense) [Compound 958526]" labelvalue=MET
substance="958621 (antisense kA*kA*k[5mC]*dG*dA*dG*dG*dG*dT*d[5mC]*dA*dA*dG*k[5mC]*k[5mC]*kT) [Compound 958621]" labelvalue=MET
substance="958701 (antisense kT*kT*kA*dA*dA*d[5mC]*dT*dA*dG*dG*d[5mC]*dA*d[5mC]*kA*kT*kT) [Compound 958701]" labelvalue=MET
substance="958796 (antisense kA*kT*kT*dA*dT*dA*dT*dG*dG*dT*dT*dG*d[5mC]*kT*kT*k[5mC]) [Compound 958796]" labelvalue="NOT MET"

Moving on to the next substance.
Please check the record 958476 (antisense kT*kT*k[5mC]*d[5mC]*dG*dG*dT*dG*d[5mC]*dA*dT*dG*dT*kG*kT*k[5mC]) [Compound 958476] and state if its YAP1 (% UTC) is at or above 5 % UTC.
NOT MET

====

test: Cynomolgus monkey tolerability, hematology (Example 34); type: in vivo, cynomolgus monkeys; settings: cynomolgus monkey, in vivo, sc, 35 mg/kg
Each entry gets class 0 if its EOS stays under 1%, and class 1 if its EOS is 1% or above.

Solved entries:
substance="1198872 (TGTATGTCAGAAGAGT; chemically modified gapmer, further chemistry not given here) [compound 1198872]" labelvalue="class 0"
substance="1076453 (GTAATATTGCAATCTG; 3-10-3 cEt gapmer, further chemistry not given here) [compound 1076453]" labelvalue="class 1"
substance="958499 (ATTAGAGTATGTGGCA; 3-10-3 cEt gapmer, further chemistry not given here) [compound 958499]" labelvalue="class 1"
substance="1198728 (TATTAGAGTATGTGGC; modified gapmer, further chemistry not given here) [compound 1198728]" labelvalue="class 1"
substance="1198440 (AAGTGTATGTCAGAAG; cEt, 2'-MOE, 5-methylcytosine, phosphorothioate modifications, further chemistry not given here) [compound 1198440]" labelvalue="class 1"

Shifting focus to the substance that follows.
Item 1198831 (CACTTTTACATTAGGA; chemically modified gapmer, further chemistry not given here) [compound 1198831] with EOS of 1% or above?
class 1

====

Here the recorded YAP1 (% UTC) is given for each entry.
Tested on: Yap1 mRNA
Assay: Antisense inhibition of human Yap1 in A-431 cells by cEt gapmers, single dose (Example 3, RTS36584)
Type: cell-based
Details: Table 27; Yap1 mRNA by 3-10-3 cEt gapmers targeting SEQ ID NO.: 1, and 2; percent of untreated control
Description: Modified oligonucleotides were designed to target a Yap1 nucleic acid and were tested for their effect on Yap1 mRNA level in vitro. The modified oligonucleotides were tested in a series of experiments that had similar culture conditions. […] After a treatment period of approximately 48 hours, RNA was isolated from the cells and Yap1 mRNA levels were measured by quantitative real-time RTPCR. […] Yap1 mRNA levels were normalized to total RNA content, as measured by RIBOGREEN®. […]
Strand notation (5' to 3'): a small letter for the sugar, then the base; units joined by * are phosphorothioate-linked, units joined directly phosphodiester-linked; [ ] holds rarer units or linkages, { } end groups; capitals alone tell only the bases. k = constrained ethyl (cEt); [5mC] = 5-methylcytosine; d = 2'-deoxy (DNA)
Please reply with the bare figure in % UTC and do not write the unit itself.

substance="958499 (ATTAGAGTATGTGGCA; 3-10-3 cEt gapmer, further chemistry not given here) [compound 958499]" measurementunits="% UTC" measuredvalue=2
substance="1076269 (kG*kA*k[5mC]*dG*dA*dA*dA*dA*dA*dT*dA*dT*dT*k[5mC]*kT*kT; antisense) [compound 1076269]" measurementunits="% UTC" measuredvalue=28
substance="1075981 (kA*kA*kG*d[5mC]*dA*dA*dT*dA*dT*d[5mC]*d[5mC]*dT*dA*k[5mC]*kA*k[5mC]; antisense) [compound 1075981]" measurementunits="% UTC" measuredvalue=40
substance="1076525 (kG*kA*kA*dT*dT*dT*dA*dT*dA*dT*d[5mC]*dA*dG*kG*kT*k[5mC]; antisense) [compound 1076525]" measurementunits="% UTC" measuredvalue=3
substance="1074349 (antisense k[5mC]*kT*kG*dT*dA*d[5mC]*dT*d[5mC]*dT*d[5mC]*dA*dT*d[5mC]*kT*k[5mC]*kG) [compound 1074349]" measurementunits="% UTC" measuredvalue=30

The substance listed as 1074125 (kG*k[5mC]*kG*dG*d[5mC]*dT*dG*d[5mC]*dG*d[5mC]*d[5mC]*dT*d[5mC]*kG*kG*kG; antisense) [compound 1074125] has a reported YAP1 (% UTC) of 94

====

experiment: Cynomolgus monkey tolerability, kidney and liver function markers (Example 34); conditions: cynomolgus monkeys, 35 mg/kg subcutaneously, day 44
observable: TBIL (mg/dL)
Number only, in mg/dL; omit the unit.

substance="1198872 (TGTATGTCAGAAGAGT; chemically modified gapmer, further chemistry not given here) [compound 1198872]" measuredvalue=0.3

Recorded TBIL (substance 1198831 (CACTTTTACATTAGGA; chemically modified gapmer, further chemistry not given here) [compound 1198831] ): 0.3

For 958499 (ATTAGAGTATGTGGCA; 3-10-3 cEt gapmer, further chemistry not given here) [compound 958499] the substance record lists TBIL as 0.2

Input 1198439 (AGTGTATGTCAGAAGA; sugar, 5-methylcytosine, phosphorothioate modifications, further chemistry not given here) [compound 1198439] . Output TBIL: 0.2

====

test system: Yap1 mRNA; test: Antisense inhibition of human Yap1 in A-431 cells by cEt gapmers, single dose (Example 2, RTS4814); type: cell-based; details: Table 21; Yap1 mRNA, percent of untreated control; 3-10-3 cEt gapmers targeting SEQ ID NO.: 1 and 2
Strand notation (5' to 3'): a small letter for the sugar, then the base; units joined by * are phosphorothioate-linked, units joined directly phosphodiester-linked; [ ] holds rarer units or linkages, { } end groups; capitals alone tell only the bases. k = constrained ethyl (cEt); [5mC] = 5-methylcytosine; d = 2'-deoxy (DNA)
Below, each entry is listed with its recorded YAP1 (% UTC).
Report only the number, with the unit % UTC understood.

Some solved cases for reference:
substance="1075623 (k[5mC]*kA*kT*dA*dA*dT*d[5mC]*dA*dA*dA*dA*dT*dG*kG*kG*k[5mC]; antisense) [Compound 1075623]" observable="YAP1 (% UTC)" measurementunits="% UTC" measuredvalue=48
substance="1075719 (k[5mC]*kT*kA*dA*dA*dA*d[5mC]*d[5mC]*dG*dG*d[5mC]*dT*dG*kG*kA*k[5mC]; antisense) [Compound 1075719]" observable="YAP1 (% UTC)" measurementunits="% UTC" measuredvalue=76
substance="1076071 (kT*kA*kT*dT*dA*dG*dT*dA*dA*dT*dG*d[5mC]*dA*k[5mC]*kA*kG; antisense) [Compound 1076071]" observable="YAP1 (% UTC)" measurementunits="% UTC" measuredvalue=14
substance="1074631 (antisense k[5mC]*kA*kT*dA*dG*d[5mC]*dA*dG*d[5mC]*dT*dT*dT*dT*kG*k[5mC]*k[5mC]) [Compound 1074631]" observable="YAP1 (% UTC)" measurementunits="% UTC" measuredvalue=9
substance="1074823 (kG*kA*kG*d[5mC]*dA*d[5mC]*dT*d[5mC]*dA*dT*dT*dT*d[5mC]*kT*k[5mC]*kA; antisense) [Compound 1074823]" observable="YAP1 (% UTC)" measurementunits="% UTC" measuredvalue=77
substance="1074151 (antisense kG*kG*kG*d[5mC]*d[5mC]*dG*dA*dG*dG*dT*dG*dG*dA*kG*kA*kA) [Compound 1074151]" observable="YAP1 (% UTC)" measurementunits="% UTC" measuredvalue=81

// recorded YAP1 (% UTC) for 1075591 (kG*kT*kA*dA*dT*dA*dA*dT*d[5mC]*dA*d[5mC]*d[5mC]*dT*kT*kA*k[5mC]; antisense) [Compound 1075591] : 76

// field: YAP1 (% UTC); key: 1075495 (antisense k[5mC]*kT*kT*dA*dA*dT*dT*dG*dG*dT*dA*dA*d[5mC]*kT*kG*kA) [Compound 1075495] ; value = 19

substance 1075335 (k[5mC]*kT*kT*dA*dA*dT*dA*dA*dT*d[5mC]*dT*dA*d[5mC]*k[5mC]*kA*kG; antisense) [Compound 1075335] , YAP1 (% UTC) observed: 30

Measured values drawn from patent US11214803B2 for this set.
